assayed_system: Protein farnesyltransferase (Homo sapiens, UniProt P49354+P49356)
protocol_details: Inhibitory activity against protein farnesyltransferase.
Type: protein-complex assay
measured_property: IC50 (µM)

{"columns": ["molecule", "assayed_system", "IC50 / µM"],
 "data": [
  ["CC1(C)C2CCC1(CS(=O)(=O)N1CCC(=C3c4ccc(Cl)cc4CCc4cccnc43)CC1)C(=O)C2 (centres undefined)", "Protein farnesyltransferase (Homo sapiens, UniProt P49354+P49356)", 11.4],
  ["CCS(=O)(=O)N1CCC(=C2c3ccc(Cl)cc3CCc3cccnc32)CC1", "Protein farnesyltransferase (Homo sapiens, UniProt P49354+P49356)", 5.2],
  ["O=C(NCC(=O)N1CCC(=C2c3ccc(Cl)cc3CCc3cccnc32)CC1)c1ccccc1", "Protein farnesyltransferase (Homo sapiens, UniProt P49354+P49356)", 8.8]
]}

(I) O=C(CN1C(=O)c2ccccc2S1(=O)=O)N1CCC(=C2c3ccc(Cl)cc3CCc3cccnc32)CC1
(II) C=CS(=O)(=O)N1CCC(=C2c3ccc(Cl)cc3CCc3cccnc32)CC1
Name the one with the greater IC50 value, either I or II as given. Answer = label.
I
(I: 2 µM, II: 1 µM)

====

assayed_system: Protein farnesyltransferase (Homo sapiens, UniProt P49354+P49356)
protocol_details: Inhibitory activity against protein farnesyltransferase.
Type: protein-complex assay
measured_property: IC50 (µM)

{"columns": ["compound", "assayed_system", "measured_property", "unit_label", "reported_measurement"],
 "data": [
  ["O=C(NCC(=O)N1CCC(=C2c3ccc(Cl)cc3CCc3cccnc32)CC1)OCc1ccccc1", "Protein farnesyltransferase (Homo sapiens, UniProt P49354+P49356)", "IC50", "µM", 8.5],
  ["CS(=O)(=O)N1CCC(=C2c3ccc(Cl)cc3CCc3cccnc32)CC1", "Protein farnesyltransferase (Homo sapiens, UniProt P49354+P49356)", "IC50", "µM", 1.9],
  ["O=C(CC[C@H](C(=O)N1CCC(=C2c3ccc(Cl)cc3CCc3cccnc32)CC1)N1C(=O)c2ccccc2C1=O)Nc1ccccc1", "Protein farnesyltransferase (Homo sapiens, UniProt P49354+P49356)", "IC50", "µM", 4.8],
  ["CC1(C)C2CCC1(CS(=O)(=O)N1CCC(=C3c4ccc(Cl)cc4CCc4cccnc43)CC1)C(O)C2 (stereo not drawn)", "Protein farnesyltransferase (Homo sapiens, UniProt P49354+P49356)", "IC50", "µM", 8.2]
]}

(I) O=S(=O)(Cc1ccccc1)N1CCC(=C2c3ccc(Cl)cc3CCc3cccnc32)CC1
(II) O=C([C@@H](Cc1c[nH]cn1)N1C(=O)c2ccccc2C1=O)N1CCC(=C2c3ccc(Cl)cc3CCc3cccnc32)CC1
Which shows the larger IC50 value: I or II ? Choose, then provide that item's label.
II

====

assayed_system: Protein farnesyltransferase (Homo sapiens, UniProt P49354+P49356)
protocol_details: Inhibitory activity against protein farnesyltransferase.
Format: protein-complex assay
IC50 reference

{"columns": ["chemical_smiles", "IC50"],
 "data": [
  ["CC(C)C[C@H](C(=O)N1CCC(=C2c3ccc(Cl)cc3CCc3cccnc32)CC1)N1C(=O)c2ccccc2C1=O", "> 10 µM"],
  ["CCCCCCCCS(=O)(=O)N1CCC(=C2c3ccc(Cl)cc3CCc3cccnc32)CC1", "> 12 µM"],
  ["O=S(=O)(c1ccc2ccccc2c1)N1CCC(=C2c3ccc(Cl)cc3CCc3cccnc32)CC1", "> 12 µM"]
]}

For the compound `O=C([C@@H](Cc1ccccc1)N1C(=O)c2ccccc2C1=O)N1CCC(=C2c3ccc(Cl)cc3CCc3cccnc32)CC1` , give its reported IC50.
> 10 µM
